- method-notes: First-order hydrolysis rate constant in rat cerebral cortical homogenate at a unit tissue concentration (g/mL) without inhibitor
- Format: ADME, tissue-based
Documented Total rate across a set of compounds
The response must be a number in min⁻¹ with no trailing unit.

[
  {
    "compound": "CC(=O)OC1CCN(CC[18F])CC1",
    "quantity-unit": "min⁻¹",
    "Total rate": 0.1
  }
]

Per the record, CC(=O)OCC1CCN(CC[18F])CC1 has Total rate of 1.67

Per the record, CC(=O)OC1CCN([11CH3])CC1 has Total rate of 1.73

Per the record, CCC(=O)OC1CCN([11CH3])CC1 has Total rate of 0.41
